The origin of these recorded values is PubChem BioAssay (Tox21).

Biological target: Aromatase (Homo sapiens)
Assay: qHTS assay to identify aromatase inhibitors (AID 743083); note: nearly all actives have a fitted effect of over 55% in size
Details: MCF-7 aro ERE, testosterone-driven ERE luciferase, 24 h; series mostly up to 70.3 µM
Inconclusive results are not listed. Active and inactive are the calls of the source. Calls come from the whole dose curve; as a rule, active = well fitted inhibition curve with a large enough effect in the repeat runs; inconclusive = weak or mixed curves; inactive = no such curve, though single readings can be large or run the other way.
Pick one: active, inactive

Worked examples, 6 compounds total:
Compound	Answer Label
Cc1ccc2nc(N)[nH]c(=O)c2c1Sc1ccncc1	active
Nc1nc(-c2ccc([N+](=O)[O-])cc2)cs1	inactive
CC1CCC(C(C)CS)CC1S (configuration not stated)	inactive
O=C(NS(=O)(=O)/C=C/c1ccccc1)c1ccc(F)cc1Cl	inactive
O=C(O)c1ccc(O)cc1O	inactive
CC(C)(O)CCc1ccccc1	inactive

Next compound, please.
GET /call?item= "c1ccc(CCCc2ccncc2)cc1" returns the recorded outcome of this test.
active

----------
Assay: qHTS assay for identifying genotoxic compounds that show differential cytotoxicity against isogenic chicken DT40 cell lines with known DNA damage response pathways - wild type cell line (AID 743012); note: % is set by controls: 0 for no effect and ±100 for the full control effect; nearly all actives have a fitted effect of over 60% in size
Conditions: DT40 wild type chicken cells viability, CellTiter-Glo, 40 h; series mostly up to 68.4 µM
Results filed as inconclusive are left out. Activity calls are given as the source filed them. The call rests on the fitted dose curve; in most records, active means well fitted cell-killing curve with a large enough effect in the repeat runs; inconclusive means weak or mixed curves, or effect the other way; inactive means no such curve, though single readings can be large or run the other way.
Bench note: report the call from 1 (yes) = active, 0 (no) = inactive

Could you please tell me the result logged for CC1C(C)(C)C2=C(C(=O)CCC2)C1(C)C (stereo not given) in this assay?
0 (no)

Outcome logged for COC(=O)CC(C(C)=O)C(=O)OC (stereo not given) in this assay:
0 (no)

Call for entry "CC(CO)(CO)C(=O)O" :
0 (no)

What outcome does the record of this test show for "CCCCCCCCCCCCCCCC(=O)OCC" ?
0 (no)

Which outcome was assigned to CCCCCCC(O)CCOC(C)=O (stereo not given) in this test?
0 (no)

Which outcome was entered for the molecule "CC(=O)OCCC1CCCCC1" in this test?
0 (no)

# fetch the recorded call for "CC(C)N=C=NC(C)C" here
0 (no)

----------
Biological target: Cytochrome P450 3A4 (Homo sapiens)
Assay: Cytochrome P450 Family 3 Subfamily A Member 4 (CYP3A4) small molecule antagonists: luciferase reporter qHTS assay (AID 1671201); note: nearly all actives have a fitted effect of over 50% in size
Conditions: P450-Glo CYP3A4 enzyme, luciferin luminescence, 1 h; series mostly up to 115 µM
Records with an inconclusive call do not appear. Calls of active or inactive are those of the source. Calls follow the shape of the dose curve; as a rule, active = well fitted inhibition curve with a large enough effect in the repeat runs; inconclusive = weak or mixed curves; inactive = no such curve, though single readings can be large or run the other way.
Could you please pick one outcome from this set? active, inactive

See these solved cases before continuing.
Compound	Target Of Assay	Answer Label
CC(C)c1ccc(C#N)cc1	Cytochrome P450 3A4 (Homo sapiens)	inactive
CCCCCCCCCCCCCCCCCC(=O)OCC(CC)CCCC (stereo not drawn)	Cytochrome P450 3A4 (Homo sapiens)	inactive
O=C1CC[C@@H](C(=O)O)N1	Cytochrome P450 3A4 (Homo sapiens)	inactive
CC1CCc2nccnc21 (stereo not drawn)	Cytochrome P450 3A4 (Homo sapiens)	inactive
ClC1=C(Cl)C1(Cl)Cl	Cytochrome P450 3A4 (Homo sapiens)	inactive
CCOC(=O)c1ccc(NC(=O)CN2CCCCC2)cc1	Cytochrome P450 3A4 (Homo sapiens)	inactive
Cc1c[nH]c2ccccc12	Cytochrome P450 3A4 (Homo sapiens)	inactive
CCN(Cc1cccc(S(=O)(=O)O)c1)c1ccc(C(=C2C=CC(=[N+](CC)Cc3cccc(S(=O)(=O)O)c3)C=C2)c2ccc(O)cc2S(=O)(=O)[O-])cc1	Cytochrome P450 3A4 (Homo sapiens)	active
CC(C)(C)C1(CCc2ccc(Cl)cc2)CO1 (stereo not drawn)	Cytochrome P450 3A4 (Homo sapiens)	inactive
O=C(NS(=O)(=O)/C=C/c1ccccc1)c1ccc(F)cc1Cl	Cytochrome P450 3A4 (Homo sapiens)	inactive

Any idea what this test logged for "C=Cc1ccc(OC(C)=O)cc1" ?
inactive

GET /call?item= "CC(C)(O)CCc1ccccc1" returns the recorded outcome of this test.
inactive

Assay result, entry "CCCC(=O)OC(=O)CCC" — outcome?
inactive

Entry "COc1ccc(CCN(C)CCCN2CCc3cc(OC)c(OC)cc3CC2=O)cc1OC" : call = ?
inactive

Returns: the outcome recorded for C[C@@H]1[C@H](O)[C@@H](C)/C=C/C=C\C=C\C=C\C=C\C=C\C=C\[C@H](O[C@@H]2O[C@H](C)[C@@H](O)[C@H](N)[C@@H]2O)C[C@@H]2O[C@](O)(C[C@@H](O)C[C@@H](O)[C@H](O)CC[C@@H](O)C[C@@H](O)CC(=O)O[C@H]1C)C[C@H](O)[C@H]2C(=O)O (stereo in doubt) in this assay.
inactive

----------
Test: qHTS RealTime-Glo MT Cell Viability Assay in HepG2 cells - 40 hour (AID 1224870); note: % is set by controls: 0 for no effect and ±100 for the full control effect; nearly all actives have a fitted effect of over 50% in size
Details: RealTime-Glo luminescence; series mostly up to 76.8 µM
Inconclusive results are not listed. The source made the active and inactive calls. Calls follow the shape of the dose curve; as a rule, active = well fitted cell-killing curve with a large enough effect in the repeat runs; inconclusive = weak or mixed curves, or effect the other way; inactive = flat fitted curve, though single readings scatter.
Pick one: active, inactive

Examples from the recorded data:
Compound	Answer Label
Cc1ccc(NC(=O)N(C)C)cc1NC(=O)N(C)C	inactive
O=C(O)CNC(=O)c1ccccc1I	inactive
CCCCCCCCCCCCCOS(=O)(=O)O	inactive

Now, please, on to the next compound.
Which outcome was entered for the compound CC(=O)OC(C)C[N+](C)(C)C (stereo not given) in this test?
inactive

----------
Experiment: A CellTox Green Cytotoxicity Assay to monitor cytotoxicity in HEK293 cells - 0 hour (AID 1224869); note: % is set by controls: 0 for no effect and ±100 for the full control effect; nearly all actives have a fitted effect of over 50% in size
Conditions: CellTox Green fluorescence; series mostly up to 76.8 µM
Calls of active or inactive are those of the source. Calls come from the whole dose curve; as a rule, active = well fitted activation curve with a large enough effect in the repeat runs; inconclusive = weak or mixed curves; inactive = flat fitted curve, though single readings scatter.
Readout Name: cytotoxicity

Examples from the recorded data:
Compound	Value Observed
Cc1ccc2nc(N)[nH]c(=O)c2c1Sc1ccncc1	inactive
NC(=O)c1ccccc1[N+](=O)[O-]	inactive
COc1cc(NS(=O)(=O)c2ccc(N)cc2)nc(C)n1	inactive
Cc1oc(=O)oc1COC(=O)[C@@H]1N2C(=O)[C@@H](NC(=O)[C@H](N)c3ccccc3)[C@H]2SC1(C)C	inactive
C[C@H](CS)C(=O)N1CCC[C@H]1C(=O)O	inactive
CC1=CC[C@@H]2C[C@H]1C2(C)C	0.458% [at 15.8 µM] (inactive)

Tell me the measured cytotoxicity of "[Cl][Nd]([Cl])[Cl]" , please.
inactive

// query cytotoxicity value for entry "CCCCCCCC/C=C/C(=O)O"
inactive

Can you look up the measured cytotoxicity of CCCCCCC(CO)CCCC (centres undefined) for me?
inactive

Which measured cytotoxicity value corresponds to "CCC(CO)(CO)CO" ?
inactive

What value of measured cytotoxicity is listed for "CCc1ccc(C)cc1" ?
inactive

----------
Assay: qHTS assay to identify small molecule antagonists of the sonic hedgehog signaling (Shh) pathway - cell viability counter screen (AID 1259367); note: nearly all actives have a fitted effect of over 55% in size
Conditions: NIH/3T3 Gli1-Luc viability, CellTiter-Fluor, 24 h; series mostly up to 92.4 µM
Results filed as inconclusive are left out. The source made the active and inactive calls. Calls follow the shape of the dose curve; as a rule, active = well fitted cell-killing curve with a large enough effect in the repeat runs; inconclusive = weak or mixed curves, or effect the other way; inactive = no such curve, though single readings can be large or run the other way.
Hello, when you answer, please use one of the following outcomes: 1 (yes) = active, 0 (no) = inactive

Compound	Answer Label
c1ccc(CNc2ncnc3c2ncn3C2CCCCO2)cc1 (stereo unspecified)	0 (no)
CCCCOC(=O)CCCCC(=O)OCCCC	0 (no)
COc1ccc(-c2cc(=S)ss2)cc1	0 (no)

Recorded test outcome, item "CC(=O)C(C)=O"
0 (no)

For COC1CCC=CO1 (stereo unspecified) , what call appears in the results of this test?
0 (no)

Identify the outcome logged in this assay for the compound shown: "CCN(Cc1cccc(S(=O)(=O)O)c1)c1ccc(C(=C2C=CC(=[N+](CC)Cc3cccc(S(=O)(=O)O)c3)C=C2)c2ccccc2S(=O)(=O)[O-])cc1"
1 (yes)

Entry "ClC1=C(Cl)C1(Cl)Cl" : call = ?
0 (no)

How was "CSSc1ccoc1C" classified in this test?
0 (no)

Check the results log: what was the call for "CCCCCCCCCCCCCOS(=O)(=O)O" ?
0 (no)

For this compound, state the assay outcome: "CCCCCCCCCCCCCCCC(=O)OCC"
0 (no)

What classification did "COc1cc(NCc2ccc3nc(N)nc(N)c3c2C)cc(OC)c1OC" end up with in this test?
1 (yes)

Would you mind telling me which call this test gave "CCC(CO)(CO)CO" ?
0 (no)

For this compound, state the assay outcome: "CCCCCCCC(=O)Oc1c(Br)cc(C#N)cc1Br"
0 (no)

What outcome does the record of this test show for "CC[C@H]1OC(=O)[C@H](C)[C@@H](O[C@H]2C[C@@](C)(OC)[C@@H](O)[C@H](C)O2)[C@H](C)[C@@H](O[C@@H]2O[C@H](C)C[C@H](N(C)C)[C@H]2O)[C@](C)(O)C[C@@H](C)C(=O)[C@H](C)[C@@H](O)[C@]1(C)O" ?
0 (no)

Given "O=C(O)CO" , state the outcome it received in this test.
0 (no)

How did this test come out for "CC(C)N=C=NC(C)C" ?
0 (no)

How did this test come out for "CCC(CO)(CO)[N+](=O)[O-]" ?
0 (no)

----------
Biological target: Cytochrome P450 3A4 (Homo sapiens) (UniProt P08684)
Sequence (P08684 whole entry, looked up): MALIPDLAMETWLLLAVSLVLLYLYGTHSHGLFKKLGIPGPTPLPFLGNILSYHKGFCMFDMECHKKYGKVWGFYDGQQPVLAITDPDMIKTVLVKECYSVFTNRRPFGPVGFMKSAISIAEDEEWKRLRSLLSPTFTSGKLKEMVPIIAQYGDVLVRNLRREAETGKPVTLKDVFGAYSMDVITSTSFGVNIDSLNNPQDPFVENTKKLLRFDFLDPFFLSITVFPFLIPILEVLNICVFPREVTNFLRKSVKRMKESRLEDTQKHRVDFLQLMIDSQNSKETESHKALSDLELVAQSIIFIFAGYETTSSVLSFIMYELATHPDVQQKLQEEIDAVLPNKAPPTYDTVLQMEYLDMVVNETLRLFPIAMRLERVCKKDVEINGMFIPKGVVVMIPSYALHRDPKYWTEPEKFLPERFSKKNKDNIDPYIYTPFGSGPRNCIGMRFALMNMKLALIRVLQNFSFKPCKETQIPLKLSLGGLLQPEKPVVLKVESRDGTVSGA
Experiment: Cytochrome P450 Family 3 Subfamily A Member 4 (CYP3A4) small molecule antagonists: luciferase reporter qHTS assay (AID 1671201); note: nearly all actives have a fitted effect of over 50% in size
Conditions: P450-Glo CYP3A4 enzyme, luciferin luminescence, 1 h; series mostly up to 115 µM
Results filed as inconclusive are left out. Calls of active or inactive are those of the source. The call rests on the fitted dose curve; in most records, active means well fitted inhibition curve with a large enough effect in the repeat runs; inconclusive means weak or mixed curves; inactive means no such curve, though single readings can be large or run the other way.
Outcome field: choose from active, inactive

Observe how each entry below is paired with its result.
Compound	Answer Label
CCN(CC)c1cccc(O)c1	active
CC[C@H]1OC(=O)[C@H](C)[C@@H](O[C@H]2C[C@@](C)(OC)[C@@H](O)[C@H](C)O2)[C@H](C)[C@@H](O[C@@H]2O[C@H](C)C[C@H](N(C)C)[C@H]2O)[C@](C)(O)C[C@@H](C)C(=O)[C@H](C)[C@@H](O)[C@]1(C)O	active

Answer briefly: the call reported for "COC(=O)c1sccc1S(N)(=O)=O" in this assay.
inactive

Called result for "CCC(CO)(CO)CO"
inactive

So what was the verdict on "Cc1ccc(N(CCO)CCO)cc1" in this test?
inactive

Write down the call the test reported for this compound. Item: "C=CCOC(=O)COCCC(C)C"
inactive

Outcome logged for "CC(C)N=C=NC(C)C" in this assay:
inactive

What outcome does the record of this test show for CCOC(=O)C(C)O (stereo not drawn) ?
inactive

Hi, do you know how "CCN(CC)C(=O)/C(C#N)=C/c1cc(O)c(O)c([N+](=O)[O-])c1" came out in this test?
inactive

Recorded test outcome, item "CC(C)OC(=O)c1ccccc1C(=O)OC(C)C"
inactive

For CCCCCCC(O)CCCCCCCCCCC(=O)OC (stereo not drawn) , what call appears in the results of this test?
inactive

Could you check what this test reported for "CC(C)C(=O)OCCOc1ccccc1" ?
inactive

Short answer needed: outcome of this test for "CC/C=C\C/C=C\C/C=C\CCCCCCCC(=O)OCC" ?
active
